tested on: Yap1 mRNA; experiment: Dose-dependent inhibition of human Yap1 in A-431 cells (Example 7, 10,000 cells per well, RTS36584); assay type: cell-based; settings: Table 57, 4000.00 nM, free uptake, A-431 cells 10,000 cells per well, 48 hours
Strand notation (5' to 3'): a small letter for the sugar, then the base; units joined by * are phosphorothioate-linked, units joined directly phosphodiester-linked; [ ] holds rarer units or linkages, { } end groups; capitals alone tell only the bases. k = constrained ethyl (cEt); [5mC] = 5-methylcytosine; d = 2'-deoxy (DNA)
Note to self: values exactly at 20 % UTC are class 1. So Yap1 mRNA, % UTC at or above 20 % UTC is class 1, below is class 0.

{"substance": "958616 (kG*kG*kT*dG*dG*dT*d[5mC]*dT*dT*dG*dT*dT*d[5mC]*kT*kT*kA; antisense) [compound 958616]", "class-assignment": "class 0"}
{"substance": "958451 (antisense k[5mC]*kA*k[5mC]*dG*dA*dT*d[5mC]*dT*dG*dA*dT*dG*d[5mC]*k[5mC]*k[5mC]*kG) [compound 958451]", "class-assignment": "class 1"}
{"substance": "958466 (kG*kT*k[5mC]*dA*dT*dT*dA*dA*dG*dG*dA*dT*dG*kT*k[5mC]*kA; antisense) [compound 958466]", "class-assignment": "class 1"}
{"substance": "958491 (kA*k[5mC]*kT*dA*dA*dA*dT*dG*d[5mC]*dT*dG*dT*dG*kA*k[5mC]*kA; antisense) [compound 958491]", "class-assignment": "class 0"}
{"substance": "958526 (kA*kG*kT*dA*dA*dG*dA*dA*d[5mC]*dA*dA*dT*d[5mC]*kT*kT*kG; antisense) [compound 958526]", "class-assignment": "class 0"}
{"substance": "958551 (k[5mC]*kT*k[5mC]*d[5mC]*dT*dG*dT*dA*dG*dA*d[5mC]*dA*d[5mC]*kA*kT*kA; antisense) [compound 958551]", "class-assignment": "class 0"}
{"substance": "958761 (kA*kG*kT*d[5mC]*dT*d[5mC]*dA*dA*d[5mC]*dA*dA*d[5mC]*d[5mC]*kT*kT*k[5mC]; antisense) [compound 958761]", "class-assignment": "class 1"}
{"substance": "958786 (kT*kA*kT*dG*dT*d[5mC]*d[5mC]*dT*dA*d[5mC]*dT*dT*dT*k[5mC]*k[5mC]*k[5mC]; antisense) [compound 958786]", "class-assignment": "class 1"}
{"substance": "958781 (kG*kT*k[5mC]*dA*dT*d[5mC]*dT*dA*dT*dG*dT*dG*dT*k[5mC]*k[5mC]*kT; antisense) [compound 958781]", "class-assignment": "class 0"}
{"substance": "958486 (kT*kT*kA*dG*dA*dG*d[5mC]*d[5mC]*dA*dA*d[5mC]*dT*dG*kT*kG*kA; antisense) [compound 958486]", "class-assignment": "class 1"}
{"substance": "958731 (kG*k[5mC]*kT*d[5mC]*dT*dG*dT*d[5mC]*dA*dG*dT*dT*dA*kT*k[5mC]*k[5mC]; antisense) [compound 958731]", "class-assignment": "class 0"}
{"substance": "715483 (k[5mC]*kT*k[5mC]*dT*dT*dT*dG*dG*dA*dA*dA*d[5mC]*d[5mC]*kA*kT*kT) [compound 715483]", "class-assignment": "class 0"}
{"substance": "958546 (k[5mC]*kA*kT*dA*d[5mC]*dT*d[5mC]*dT*dA*dG*dT*dT*dA*k[5mC]*kA*kT; antisense) [compound 958546]", "class-assignment": "class 1"}
{"substance": "958531 (kG*kT*kA*dG*dG*dA*dG*d[5mC]*dA*dA*dG*dT*d[5mC]*kT*kT*kG; antisense) [compound 958531]", "class-assignment": "class 0"}
{"substance": "958506 (kG*k[5mC]*kA*dG*dA*dT*dA*dA*dT*d[5mC]*dG*dA*dG*kA*kT*kT; antisense) [compound 958506]", "class-assignment": "class 0"}
{"substance": "958556 (k[5mC]*kA*kA*d[5mC]*d[5mC]*dA*dA*d[5mC]*dT*dA*dT*dT*dA*k[5mC]*kT*kT; antisense) [compound 958556]", "class-assignment": "class 1"}
{"substance": "958686 (k[5mC]*kG*k[5mC]*dA*dA*dT*dA*dT*dA*dG*dT*d[5mC]*dT*kA*kT*kA; antisense) [compound 958686]", "class-assignment": "class 0"}
{"substance": "958541 (kG*kT*kA*dT*dT*d[5mC]*dT*dA*dT*d[5mC]*d[5mC]*dA*dG*kG*kG*kT; antisense) [compound 958541]", "class-assignment": "class 0"}
{"substance": "958481 (kG*k[5mC]*kA*dA*d[5mC]*dT*dG*dG*d[5mC]*dT*dT*dA*dT*kG*kG*kA; antisense) [compound 958481]", "class-assignment": "class 0"}
